Taken from BindingDB's records for patent US12415785.

# system.tested: Stimulator of interferon genes protein [1-379,R71H,G230A,H232R,R293Q] (Homo sapiens, UniProt Q86WV6, G230A/H232R/R293Q/R71H)
# Construct: 1-379
# Sequence (Q86WV6 whole entry R71H/G230A/H232R/R293Q, looked up): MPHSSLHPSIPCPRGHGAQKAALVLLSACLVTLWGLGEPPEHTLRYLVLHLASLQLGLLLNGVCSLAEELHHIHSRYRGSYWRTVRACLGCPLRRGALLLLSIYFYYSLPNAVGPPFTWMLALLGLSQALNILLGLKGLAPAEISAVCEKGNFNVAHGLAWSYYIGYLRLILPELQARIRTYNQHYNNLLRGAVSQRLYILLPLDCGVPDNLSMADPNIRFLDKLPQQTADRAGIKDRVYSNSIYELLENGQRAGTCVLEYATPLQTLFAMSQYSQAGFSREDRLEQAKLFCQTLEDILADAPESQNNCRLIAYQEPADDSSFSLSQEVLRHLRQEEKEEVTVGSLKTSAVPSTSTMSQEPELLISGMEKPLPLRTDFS
# protocol.summary: Surface Plasmon Resonance (SPR)
pKd: −log10 of the molar value.
Record Y whenever pKd is at 7 or higher; record N when lower.

Task: I'd appreciate it if you could say whether COc1c(C(N)=O)ccc2c1nc(-c1ccc(Cl)cc1-c1nn[nH]n1)n2CCn1c(-c2ccc(Cl)cc2-c2nn[nH]n2)nc2c(OC)c(C(N)=O)ccc21 has pKd at least equal to 7.
Result: N

Task: I'd appreciate it if you could say whether COc1c(C(N)=O)ccc2c1nc(-c1cccc(Cl)c1-c1nn[nH]n1)n2CCn1c(-c2cccc(Cl)c2-c2nn[nH]n2)nc2c(OC)c(C(N)=O)ccc21 has pKd at least equal to 7.
Result: N

Task: I'd appreciate it if you could say whether COc1c(C(N)=O)ccc2c1nc(-c1c(F)cc(Cl)cc1-c1n[nH]c(=O)o1)n2CCn1c(-c2c(F)cc(Cl)cc2-c2n[nH]c(=O)o2)nc2c(OC)c(C(N)=O)ccc21 has pKd at least equal to 7.
Result: Y
